Entries and their measured switch fluorescence ratio follow.
# Test system: ATP;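 also: ATP exposure 15 min at 22 °C before imaging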
# assay summary: switch fluorescence ratio, 500 uM ATP over buffer (Cy3 cluster intensity, sum of 5 cycles each) (fold (ratio)); higher = stronger signal-on switching upon ATP binding; sequences stand for … in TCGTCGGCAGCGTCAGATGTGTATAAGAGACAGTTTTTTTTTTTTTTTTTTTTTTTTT…TC
# condition context: aptamer strand: ATP DNA aptamer (quencher-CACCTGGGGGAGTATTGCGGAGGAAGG + anchor), 100 nM annealed; ATP concentration: 500 uM
Answer using only a numeral; do not append any unit.

Consider the following illustrative entries.
# query: switch fluorescence ratio of entry TACTTTTTAT
1.01

Could you do the same for AAAAAAATCG , please?
1.01

Could you do the same for TGTTTCAAGT , please?
0.973

Could you do the same for GGTAACGTTT , please?
0.985

Could you do the same for CCGTTATTCT , please?
1.35

Could you do the same for CTGTTGATGG , please?
1

---
# query: switch fluorescence ratio of entry TGAAGGCGGG
1

Could you do the same for TCCATGACGC , please?
1.1

Could you do the same for TTCAGGGCGC , please?
1.03

* * *

# System: ATP;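 also: ATP exposure 15 min at 22 °C before imaging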
# assay summary: switch fluorescence ratio, 500 uM ATP over buffer (Cy3 cluster intensity, sum of 5 cycles each) (fold (ratio)); higher = stronger signal-on switching upon ATP binding; sequences stand for … in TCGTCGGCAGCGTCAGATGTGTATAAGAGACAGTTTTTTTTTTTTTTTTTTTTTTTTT…TC
# condition context: aptamer strand: ATP DNA aptamer (quencher-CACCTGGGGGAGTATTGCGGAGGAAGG + anchor), 100 nM annealed; ATP concentration: 500 uM
readout kind: switch fluorescence ratio

# query: switch fluorescence ratio of entry AAGTTTGTGT
1.02

Could you do the same for GAGAAGCACG , please?
0.978

Could you do the same for GCCGTGTATG , please?
1.06

Could you do the same for AAAAGGGTCT , please?
1.02

Could you do the same for GAAATTTTCC , please?
1.35

Could you do the same for CAGATTGTGT , please?
1

Could you do the same for TTTTTTGGGC , please?
0.99

Could you do the same for GATATTTGCG , please?
1.01

Could you do the same for CCATAGGGGG , please?
0.989

Could you do the same for GCCCACCGAT , please?
1.06

Could you do the same for CCCTGGGGTA , please?
1.07

Could you do the same for CAGGACACTA , please?
1.03

Could you do the same for GAAAGCGGCT , please?
1.03

Could you do the same for TGCAAAAGGC , please?
0.972

* * *

# Tested on: ATP;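 also: ATP exposure 15 min at 22 °C before imaging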
# assay summary: switch fluorescence ratio, 500 uM ATP over buffer (Cy3 cluster intensity, sum of 5 cycles each) (fold (ratio)); higher = stronger signal-on switching upon ATP binding; sequences stand for … in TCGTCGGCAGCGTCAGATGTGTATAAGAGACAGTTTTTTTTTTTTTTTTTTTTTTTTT…TC
# condition context: aptamer strand: ATP DNA aptamer (quencher-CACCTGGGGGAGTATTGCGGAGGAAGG + anchor), 100 nM annealed; ATP concentration: 500 uM
Kindly return Yes if reported switch fluorescence ratio is no lower than 1; return No if it is lower.

Could you please find out whether CGTATCCGGT has switch fluorescence ratio that meets 1 or exceeds it?
Yes

Could you do the same for CTGTCTGTGC , please?
Yes

Could you do the same for CGAGATCGAC , please?
No

Could you do the same for ATAAGGGCTT , please?
No

Could you do the same for TTTGCATCTA , please?
Yes

---
Could you please find out whether CATGTCAAGC has switch fluorescence ratio that meets 1 or exceeds it?
Yes

Could you do the same for GACGTTACCA , please?
Yes

Could you do the same for CCAGACGGTC , please?
Yes
